So I've got a bunch of variants here, and I need their protein stability index values.
B1: KLHL12 (parent)
chain: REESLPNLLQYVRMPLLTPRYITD

# Variants of: B1
# assay.summary: protein stability index of a GFP-peptide fusion (GPS, HEK-293T) (PSI 1-6); higher = more stable;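 note: lentivirally expressed fusions sorted by FACS into six bins by GFP to DsRed ratio, PSI derived from sequencing read proportions per bin multiplied by bin number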
# assay.conditions: c terminus: a fixed tail appended
Simply state the number, no unit and no words.

q: Which protein stability index reading was recorded for the variant R20W ?
a: 1.22

q: Entry to check: L9A
a: 2.97

q: Note, next up: Q10G
a: 2.45

q: Would you mind doing S4P as well?
a: 2.79

q: And L9K ?
a: 2.57

q: // repeat for V12M and report
a: 2.33

q: Next: T18I
a: 2.17

q: Try this variant too: S4E
a: 2.72

q: Also L8C ?
a: 2.29

q: Do the same for P19R please
a: 2.39

q: Would you mind doing Y11K as well?
a: 2.87

q: How about T18V ?
a: 1.97

q: Further, for L16R ?
a: 3.25

q: Then I22Q ?
a: 2.54

q: Same lookup for P19S , please.
a: 2.14

q: N7W , same question.
a: 3.17

q: Proceed to P6S
a: 2.31

q: # repeat for I22S
a: 2.72

q: Another variant: V12D
a: 3.7

q: And the next one, R20C ?
a: 2.12

q: # repeat for Q10N
a: 2.05

q: Another variant to check: I22C
a: 2.55
